Biological target: PD-1 (Homo sapiens (Human)) (UniProt Q15116)
Sequence (Q15116 21-288 limits assumed): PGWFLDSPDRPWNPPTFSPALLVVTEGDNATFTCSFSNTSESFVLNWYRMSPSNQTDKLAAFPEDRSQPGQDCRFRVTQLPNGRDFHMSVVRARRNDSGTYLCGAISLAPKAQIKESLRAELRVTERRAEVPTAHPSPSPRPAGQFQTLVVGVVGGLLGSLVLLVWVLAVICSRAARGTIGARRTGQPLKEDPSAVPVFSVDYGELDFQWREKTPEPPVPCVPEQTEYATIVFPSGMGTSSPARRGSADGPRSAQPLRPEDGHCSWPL
Assay: flow cytometry, Jurkat/PD-1 cells; vs wildtype PD-L2 IgV-Fc
Entries are sorted into classes by Fold increase over wildtype PD-L2 IgV-Fc as follows: low (below 1 fold), moderate (1 fold to below 5 fold), high (5 fold or more)

Consider the worked cases shown below.
binder	discrete label
variant PD-L2 IgV-Fc I13V, H15Q, R76G, I85F (Fc fusion, not shown: a dimerising Fc or GST; small tags and cut ends) LFTVTVPKELYIVEQGSNVTLECNFDTGSHVNLGAITASLQKVENDTSPHRERATLLEEQLPLGKASFHIPQVQVGDEGQYQCIFIYGVAWDYKYLTLK	low
variant PD-L2 IgV-Fc H15Q, T47A, Q72H, R76G, I86T (Fc fusion, not shown: a dimerising Fc or GST; small tags and cut ends) LFTVTVPKELYIIEQGSNVTLECNFDTGSHVNLGAITASLQKVENDASPHRERATLLEEQLPLGKASFHIPHVQVGDEGQYQCIITYGVAWDYKYLTLK	moderate
variant PD-L2 IgV-Fc I13V, S39I, E44D, Q82R, V89D (Fc fusion, not shown: a dimerising Fc or GST; small tags and cut ends) LFTVTVPKELYIVEHGSNVTLECNFDTGSHVNLGAITAILQKVDNDTSPHRERATLLEEQLPLGKASFHIPQVQVRDEGQYRCIIIYGDAWDYKYLTLK	high

Incoming: Which class does variant PD-L2 IgV-Fc H15Q, Q72H, V89D (Fc fusion, not shown: a dimerising Fc or GST; small tags and cut ends) LFTVTVPKELYIIEQGSNVTLECNFDTGSHVNLGAITASLQKVENDTSPHRERATLLEEQLPLGKASFHIPHVQVRDEGQYQCIIIYGDAWDYKYLTLK fall in?
Outgoing: moderate

Incoming: Follow-up item: variant PD-L2 IgV-Fc H15Q, V31M, S67L, Q82R, V89D (Fc fusion, not shown: a dimerising Fc or GST; small tags and cut ends) FTVTVPKELYIIEQGSNVTLECNFDTGSHMNLGAITASLQKVENDTSPHRERATLLEEQLPLGKALFHIPQVQVRDEGQYRCIIIYGDAWDYKYLTLK
Outgoing: high

Incoming: Param item: variant PD-L2 IgV-Fc N32D, S67L, V89D (Fc fusion, not shown: a dimerising Fc or GST; small tags and cut ends) LFTVTVPKELYIIEHGSNVTLECNFDTGSHVDLGAITASLQKVENDTSPHRERATLLEEQLPLGKALFHIPQVQVRDEGQYQCIIIYGDAWDYKYLTLK
Outgoing: moderate

Incoming: Do the same for variant PD-L2 IgV-Fc E44D, S67L, Q72H, Q82R, V89D (Fc fusion, not shown: a dimerising Fc or GST; small tags and cut ends) FTVTVPKELYIIEHGSNVTLECNFDTGSHVNLGAITASLQKVDNDTSPHRERATLLEEQLPLGKALFHIPHVQVRDEGQYRCIIIYGDAWDYKYLTLK please
Outgoing: high

Incoming: Field entry: variant PD-L2 IgV-Fc I13V, Q72H, R76G, I86T (Fc fusion, not shown: a dimerising Fc or GST; small tags and cut ends) LFTVTVPKELYIVEHGSNVTLECNFDTGSHVNLGAITASLQKVENDTSPHRERATLLEEQLPLGKASFHIPHVQVGDEGQYQCIITYGVAWDYKYLTLK
Outgoing: moderate

Incoming: Continue with variant PD-L2 IgV-Fc H15Q, K65R (Fc fusion, not shown: a dimerising Fc or GST; small tags and cut ends) LFTVTVPKELYIIEQGSNVTLECNFDTGSHVNLGAITASLQKVENDTSPHRERATLLEEQLPLGRASFHIPQVQVRDEGQYQCIIIYGVAWDYKYLTLK
Outgoing: moderate

Incoming: // repeat for variant PD-L2 IgV-Fc S67L, I85F (Fc fusion, not shown: a dimerising Fc or GST; small tags and cut ends) LFTVTVPKELYIIEHGSNVTLECNFDTGSHVNLGAITASLQKVENDTSPHRERATLLEEQLPLGKALFHIPQVQVRDEGQYQCIFIYGVAWDYKYLTLK and report
Outgoing: low

Incoming: Another binder: variant PD-L2 IgV-Fc H15Q, S67L, R76G, I85F (Fc fusion, not shown: a dimerising Fc or GST; small tags and cut ends) LFTVTVPKELYIIEQGSNVTLECNFDTGSHVNLGAITASLQKVENDTSPHRERATLLEEQLPLGKALFHIPQVQVGDEGQYQCIFIYGVAWDYKYLTLK
Outgoing: low

Incoming: For variant PD-L2 IgV-Fc I13V, H15Q, T47A, Q82R, V89D (SEQ ID NO 1544) (Fc fusion, not shown: a dimerising Fc or GST; small tags and cut ends) FTVTVPKELYIVEQGSNVTLECNFDTGSHVNLGAITASLQKVENDASPHRERATLLEEQLPLGKASFHIPQVQVRDEGQYRCIIIYGDAWDYKYLTLK then?
Outgoing: high

Incoming: Same question for variant PD-L2 IgV-Fc I13V, E44D, Q82R, V89D (Fc fusion, not shown: a dimerising Fc or GST; small tags and cut ends) LFTVTVPKELYIVEHGSNVTLECNFDTGSHVNLGAITASLQKVDNDTSPHRERATLLEEQLPLGKASFHIPQVQVRDEGQYRCIIIYGDAWDYKYLTLK please.
Outgoing: moderate

Incoming: Entry to check: variant PD-L2 IgV-Fc H15Q, T47A, Q72H, R76G (Fc fusion, not shown: a dimerising Fc or GST; small tags and cut ends) LFTVTVPKELYIIEQGSNVTLECNFDTGSHVNLGAITASLQKVENDASPHRERATLLEEQLPLGKASFHIPHVQVGDEGQYQCIIIYGVAWDYKYLTLK
Outgoing: moderate

Incoming: Param item: variant PD-L2 IgV-Fc H15Q, V89D (Fc fusion, not shown: a dimerising Fc or GST; small tags and cut ends) FTVTVPKELYIIEQGSNVTLECNFDTGSHVNLGAITASLQKVENDTSPHRERATLLEEQLPLGKASFHIPQVQVRDEGQYQCIIIYGDAWDYKYLTLK
Outgoing: moderate
